Target: T1, human CD80-murine Ig fusion protein (human)
T1 construct: Bought (Ancell #510-820); also called hCD80-mIg; human CD80-murine IgG
T1 chain: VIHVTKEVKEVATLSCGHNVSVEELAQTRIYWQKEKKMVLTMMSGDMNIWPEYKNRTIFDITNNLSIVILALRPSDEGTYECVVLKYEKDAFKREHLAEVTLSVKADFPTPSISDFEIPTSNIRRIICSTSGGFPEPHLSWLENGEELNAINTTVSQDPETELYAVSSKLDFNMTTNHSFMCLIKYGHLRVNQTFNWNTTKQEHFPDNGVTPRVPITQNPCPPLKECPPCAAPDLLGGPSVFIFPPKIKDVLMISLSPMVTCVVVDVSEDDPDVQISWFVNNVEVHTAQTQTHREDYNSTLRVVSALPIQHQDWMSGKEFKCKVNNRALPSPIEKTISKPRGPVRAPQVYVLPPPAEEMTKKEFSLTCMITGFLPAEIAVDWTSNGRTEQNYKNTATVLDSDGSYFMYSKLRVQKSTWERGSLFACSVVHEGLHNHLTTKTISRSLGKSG
Experiment: SPR Biacore, hCD80-mIg captured
Description: All Biacore™ analyses were performed on a Biacore™ 2000 system (GE Healthcare) at room temperature (RT, 25° C.). HBS-EP buffer (10 mM HEPES (pH 7.4), 150 mM NaCl, 3 mM EDTA, 0.005% surfactant P20) was used as the flow buffer for all experiments. Rabbit anti-mouse IgG antibody (GE Healthcare, #BR-1005-14) was immobilized on CM5 sensor chips (GE Healthcare, #BR-1000-14) according to the manufacturer's protocol. […]
Entries and their Kd values follow.

Check out these entries, answers already filled in.
Request the reported Kd associated with D3-28-IgG2 (Fc fusion) MHVAQPAVVLASSRGIASFVCEYESPGKANEIRVTVLRQADSQVTEVCAMTYMKGNELTFLDDPICTGTFSGNQVNLTIQGLRAMDTGLYICKVELMYPPPYYLGIGNGTQIYVIDPEPCPDSDERKCCVECPPCPAPPVAGPSVFLFPPKPKDTLMISRTPEVTCVVVDVSHEDPEVQFNWYVDGVEVHNAKTKPREEQFNSTFRVVSVLTVVHQDWLNGKEYKCKVSNKGLPAPIEKTISKTKGQPREPQVYTLPPSREEMTKNQVSLTCLVKGFYPSDIAVEWESNGQPENNYKTTPPMLDSDGSFFLYSKLTVDKSRWQQGNVFSCSVMHEALHNHYTQKSLSLSPG
0.439 to 1.75 nM

Request the reported Kd associated with D3-32-IgG2 (Fc fusion) MHVAQPAVVLASSRGIASFVCEYESPGKANEIRVTVLRKADSQVTEVCAMTYMKGDELTFLDDPSCTGTFSGNQVNLTIQGLRAADTGLYICKVELMYPPPYYLGIGNGTQIYVIDPEPCPDSDERKCCVECPPCPAPPVAGPSVFLFPPKPKDTLMISRTPEVTCVVVDVSHEDPEVQFNWYVDGVEVHNAKTKPREEQFNSTFRVVSVLTVVHQDWLNGKEYKCKVSNKGLPAPIEKTISKTKGQPREPQVYTLPPSREEMTKNQVSLTCLVKGFYPSDIAVEWESNGQPENNYKTTPPMLDSDGSFFLYSKLTVDKSRWQQGNVFSCSVMHEALHNHYTQKSLSLSPG
0.439 to 1.75 nM

Request the reported Kd associated with D3-71-IgG2 (Fc fusion) MHVAQPAVVLASSRGIASFVCEYASPGKANEIRVTVLRQADSQVTEVCAMTYMKGDELTFLDDPSCTGTFSGNQVNLTIQGLRAMDTGLYICKVELMYPPPYYEGIGNGTQIYVIDPEPCPDSDERKCCVECPPCPAPPVAGPSVFLFPPKPKDTLMISRTPEVTCVVVDVSHEDPEVQFNWYVDGVEVHNAKTKPREEQFNSTFRVVSVLTVVHQDWLNGKEYKCKVSNKGLPAPIEKTISKTKGQPREPQVYTLPPSREEMTKNQVSLTCLVKGFYPSDIAVEWESNGQPENNYKTTPPMLDSDGSFFLYSKLTVDKSRWQQGNVFSCSVMHEALHNHYTQKSLSLSPG
< 0.439 nM

Here is another binder to look at.
Request the reported Kd associated with D3-66-IgG2 (Fc fusion) MHVAQPAVVLASSRGIASFVCEYASPGKANEVRVTVLRQADSQVTEVCAMTYMKGDELTFLDDPICTGTFSGNQVNLTIQGLRAMDTGLYICKVELMYPPPYYEGIGNGTQIYVIDPEPCPDSDERKCCVECPPCPAPPVAGPSVFLFPPKPKDTLMISRTPEVTCVVVDVSHEDPEVQFNWYVDGVEVHNAKTKPREEQFNSTFRVVSVLTVVHQDWLNGKEYKCKVSNKGLPAPIEKTISKTKGQPREPQVYTLPPSREEMTKNQVSLTCLVKGFYPSDIAVEWESNGQPENNYKTTPPMLDSDGSFFLYSKLTVDKSRWQQGNVFSCSVMHEALHNHYTQKSLSLSPG
< 0.439 nM
